Data origin: paper PMC6332165

- PROTOCOL: Lipophilicity by reversed-phase thin-layer chromatography (RP-TLC), isopropanol-water mobile phase
- Type: physicochemical
- STUDY_CONDITIONS: RP-18F254s TLC, iso-propanol-water 45-65% (v/v)
PARAMETER_MEASURED: b (slope of RM = RM0 + bC, specific hydrophobic surface area)

P: Cc1nc(-c2ccc(Br)cc2)sc1-c1nnc(S)n1-c1ccccc1 [Th-11]
Q: Cc1nc(-c2ccccc2)sc1-c1nnc(S)s1 [Th-21]
Challenge: Could you point out whether the larger b (slope of RM = RM0 + bC, specific hydrophobic surface area) belongs to P or to Q ? # respond with the chosen item's label
Response given: Q
(Q: −1.286, P: −3.133)

A: Cc1ccc(-c2nc(C)c(-c3nnc(S)n3-c3ccccc3)s2)cc1 [Th-10]
B: Cc1nc(-c2ccc(Br)cc2)sc1-c1nnc(S)o1 [Th-20]
C: Cc1nc(-c2ccccc2)sc1-c1nnc(S)o1 [Th-18]
Challenge: Write the entries in order, lowest recorded b (slope of RM = RM0 + bC, specific hydrophobic surface area) first. To answer, arrange all of the labels according to the requested order.
Response given: A, C, B

----------
- PROTOCOL: Lipophilicity by reversed-phase thin-layer chromatography (RP-TLC), isopropanol-water mobile phase
- Format: physicochemical
- STUDY_CONDITIONS: RP-18F254s TLC, iso-propanol-water 45-65% (v/v), extrapolated to pure water
PARAMETER_MEASURED: RM0 (lipophilicity estimation parameter, intercept of RM = RM0 + bC)

# count of solved cases: 8
| SUBSTANCE_SMILES | RECORDED_VALUE |
| --- | --- |
| C=CCn1c(S)nnc1-c1sc(-c2ccc(C)cc2)nc1C | 1.783 |
| Cc1nc(-c2ccc(Br)cc2)sc1-c1nnc(S)o1 | 0.393 |
| Cc1nc(-c2ccccc2)sc1-c1nnc(S)o1 | 0.540 |
| Cc1ccc(-c2nc(C)c(-c3nnc(S)n3-c3ccccc3)s2)cc1 | 1.754 |
| Cc1nc(-c2ccccc2)sc1-c1nnc(S)s1 | 0.620 |
| Cc1ccc(-c2nc(C)c(C(=O)NNC(=S)Nc3ccccc3)s2)cc1 | 1.595 |
| Cc1nc(-c2ccccc2)sc1-c1nnc(S)n1C | 1.305 |
| C=CCNC(=S)NNC(=O)c1sc(-c2ccccc2)nc1C | 1.195 |

I: C=CCn1c(S)nnc1-c1sc(-c2ccc(Br)cc2)nc1C
II: Cc1ccc(-c2nc(C)c(-c3nnc(S)s3)s2)cc1
III: Cc1nc(-c2ccc(Br)cc2)sc1C(=O)NNC(=S)Nc1ccccc1
IV: Cc1ccc(-c2nc(C)c(-c3nnc(S)o3)s2)cc1
Challenge: Write the entries in order, lowest recorded RM0 (lipophilicity estimation parameter, intercept of RM = RM0 + bC) first. To answer, arrange all of the labels according to the requested order.
Response given: IV, II, III, I

----------
- PROTOCOL: Lipophilicity by reversed-phase thin-layer chromatography (RP-TLC), isopropanol-water mobile phase
- Assay type: physicochemical
- STUDY_CONDITIONS: RP-18F254s TLC, iso-propanol-water 45-65% (v/v)
PARAMETER_MEASURED: b (slope of RM = RM0 + bC, specific hydrophobic surface area)

# count of solved cases: 4
| SUBSTANCE_SMILES | RECORDED_VALUE |
| --- | --- |
| Cc1nc(-c2ccccc2)sc1C(=O)NNC(=S)Nc1ccccc1 | −2.627 |
| Cc1ccc(-c2nc(C)c(-c3nnc(S)s3)s2)cc1 | −1.227 |
| CNC(=S)NNC(=O)c1sc(-c2ccc(C)cc2)nc1C | −2.502 |
| Cc1ccc(-c2nc(C)c(C(=O)NNC(=S)Nc3ccccc3)s2)cc1 | −2.853 |

I: C=CCn1c(S)nnc1-c1sc(-c2ccc(C)cc2)nc1C
II: Cc1ccc(-c2nc(C)c(-c3nnc(S)o3)s2)cc1
III: C=CCn1c(S)nnc1-c1sc(-c2ccc(Br)cc2)nc1C
Challenge: Write the entries in order, lowest recorded b (slope of RM = RM0 + bC, specific hydrophobic surface area) first. To answer, arrange all of the labels according to the requested order.
Response given: III, I, II

----------
- PROTOCOL: Lipophilicity by reversed-phase thin-layer chromatography (RP-TLC), isopropanol-water mobile phase
- Assay type: physicochemical
- STUDY_CONDITIONS: RP-18F254s TLC, iso-propanol-water 45-65% (v/v)
PARAMETER_MEASURED: b (slope of RM = RM0 + bC, specific hydrophobic surface area)

| COMPOUND | RECORDED_VALUE |
| --- | --- |
| Cc1nc(-c2ccccc2)sc1-c1nnc(S)n1C [Th-12] | −2.463 |
| Cc1nc(-c2ccc(Br)cc2)sc1C(=O)NNC(=S)Nc1ccccc1 [Th-3] | −2.739 |
| C=CCn1c(S)nnc1-c1sc(-c2ccccc2)nc1C [Th-15] | −2.905 |
| CNC(=S)NNC(=O)c1sc(-c2ccccc2)nc1C [Th-4] | −2.355 |
| Cc1ccc(-c2nc(C)c(-c3nnc(S)n3C)s2)cc1 [Th-13] | −2.672 |
| CNC(=S)NNC(=O)c1sc(-c2ccc(Br)cc2)nc1C [Th-6] | −2.740 |
| Cc1nc(-c2ccc(Br)cc2)sc1-c1nnc(S)n1C [Th-14] | −2.659 |

----------
- PROTOCOL: Lipophilicity by reversed-phase thin-layer chromatography (RP-TLC), isopropanol-water mobile phase
- Format: physicochemical
- STUDY_CONDITIONS: RP-18F254s TLC, iso-propanol-water 45-65% (v/v), extrapolated to pure water
PARAMETER_MEASURED: RM0 (lipophilicity estimation parameter, intercept of RM = RM0 + bC)

# count of solved cases: 8
| COMPOUND | RECORDED_VALUE |
| --- | --- |
| Cc1nc(-c2ccc(Br)cc2)sc1-c1nnc(S)n1C [Th-14] | 1.630 |
| C=CCn1c(S)nnc1-c1sc(-c2ccccc2)nc1C [Th-15] | 1.664 |
| C=CCNC(=S)NNC(=O)c1sc(-c2ccc(C)cc2)nc1C [Th-8] | 1.398 |
| Cc1nc(-c2ccccc2)sc1-c1nnc(S)n1-c1ccccc1 [Th-9] | 1.479 |
| Cc1ccc(-c2nc(C)c(-c3nnc(S)n3C)s2)cc1 [Th-13] | 1.565 |
| CNC(=S)NNC(=O)c1sc(-c2ccc(C)cc2)nc1C [Th-5] | 1.161 |
| CNC(=S)NNC(=O)c1sc(-c2ccccc2)nc1C [Th-4] | 0.986 |
| Cc1nc(-c2ccccc2)sc1C(=O)NNC(=S)Nc1ccccc1 [Th-1] | 1.369 |

I: CNC(=S)NNC(=O)c1sc(-c2ccc(Br)cc2)nc1C [Th-6]
II: Cc1nc(-c2ccc(Br)cc2)sc1-c1nnc(S)n1-c1ccccc1 [Th-11]
Challenge: For the pair I and II , which member has the lower RM0 (lipophilicity estimation parameter, intercept of RM = RM0 + bC) number? # respond with the chosen item's label
Response given: I
(I: 1.398, II: 2.020)

----------
- PROTOCOL: Lipophilicity by reversed-phase thin-layer chromatography (RP-TLC), isopropanol-water mobile phase
- Type: physicochemical
- STUDY_CONDITIONS: RP-18F254s TLC, iso-propanol-water 45-65% (v/v)
PARAMETER_MEASURED: b (slope of RM = RM0 + bC, specific hydrophobic surface area)

| SUBSTANCE_SMILES | RECORDED_VALUE |
| --- | --- |
| C=CCNC(=S)NNC(=O)c1sc(-c2ccc(C)cc2)nc1C | −2.685 |
| Cc1nc(-c2ccccc2)sc1-c1nnc(S)n1-c1ccccc1 | −2.630 |
| C=CCNC(=S)NNC(=O)c1sc(-c2ccccc2)nc1C | −2.484 |
